Just for reference, patent US9708321B2 is where these values come from.

Give measured EC50 for each item. Keep answers brief.
Molecular target: hmGluR4 (Homo sapiens)
Construct: host or cells: HEK293T
Experiment: HEK-293 mGluR4 cells cAMP assay with EC20 L-Glutamate (HTRF)
Format: cell-based
Conditions: positive allosteric activity at EC20 L-Glutamate, 10 μM Forskolin, HEK293T mGluR4 cells, cAMP HTRF; read-out: hrmGluR4/HEK293T-hmGluR4 (EC50)

-- ask What value of measured EC50 is listed for CC(c1ccc(F)c(F)c1)N1CCC2(CC1)Nc1cc(Br)ccc1C(=O)N2c1ccc(Cl)cc1 (stereo not shown) [Compound 7] ?
-- reply < 1000 nM

-- ask What value of measured EC50 is listed for CC(=O)c1ccc2c(c1)NC1(CCN(Cc3ccc(F)c(F)c3)CC1)N(c1ccc(OC(F)(F)F)cc1)C2=O [Compound 77] ?
-- reply 1000 to 10000 nM

-- ask What value of measured EC50 is listed for O=C1c2ccc(F)cc2NC2(CCN(Cc3ccc(F)c(F)c3)CC2)N1c1ccc(Cl)cc1 [Compound 64] ?
-- reply < 1000 nM

-- ask What value of measured EC50 is listed for COC(=O)c1ccc2c(c1)NC1(CCN(Cc3ccc(F)c(F)c3)CC1)N(c1ccc(OC(F)(F)F)cc1)C2=O [Compound 36] ?
-- reply < 1000 nM

----------
Biological target: hmGluR4 (Homo sapiens, UniProt Q14833)
Construct: host or cells: HEK293T
Sequence (Q14833 33-912): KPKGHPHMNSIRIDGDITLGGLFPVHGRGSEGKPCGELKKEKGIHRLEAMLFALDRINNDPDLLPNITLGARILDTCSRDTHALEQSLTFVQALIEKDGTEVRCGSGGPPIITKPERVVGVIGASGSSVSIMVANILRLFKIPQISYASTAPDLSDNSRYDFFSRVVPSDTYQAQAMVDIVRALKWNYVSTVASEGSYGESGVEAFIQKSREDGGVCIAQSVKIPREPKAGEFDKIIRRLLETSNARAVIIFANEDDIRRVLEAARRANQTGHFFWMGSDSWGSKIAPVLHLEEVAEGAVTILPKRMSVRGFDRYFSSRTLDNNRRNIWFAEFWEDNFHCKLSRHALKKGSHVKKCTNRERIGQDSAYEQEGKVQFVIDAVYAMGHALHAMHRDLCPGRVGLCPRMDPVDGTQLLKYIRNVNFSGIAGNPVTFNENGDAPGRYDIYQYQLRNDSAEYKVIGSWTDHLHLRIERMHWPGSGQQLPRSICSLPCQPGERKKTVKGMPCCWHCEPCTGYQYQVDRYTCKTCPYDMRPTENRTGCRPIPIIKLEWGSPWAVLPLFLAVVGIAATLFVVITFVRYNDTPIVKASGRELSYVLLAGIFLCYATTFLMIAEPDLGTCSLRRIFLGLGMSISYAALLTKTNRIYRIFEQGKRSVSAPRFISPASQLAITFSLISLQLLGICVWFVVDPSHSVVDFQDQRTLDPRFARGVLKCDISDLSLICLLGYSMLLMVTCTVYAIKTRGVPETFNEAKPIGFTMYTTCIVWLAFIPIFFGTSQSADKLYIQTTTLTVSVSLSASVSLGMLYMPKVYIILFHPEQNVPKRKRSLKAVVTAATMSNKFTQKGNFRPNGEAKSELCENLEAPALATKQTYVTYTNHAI
Experiment: HEK-293 mGluR4 cells cAMP assay with EC20 L-Glutamate (HTRF)
Type: cell-based
Conditions: positive allosteric activity at EC20 L-Glutamate, 10 μM Forskolin, HEK293T mGluR4 cells, cAMP HTRF; read-out: hrmGluR4/HEK293T-hmGluR4 (EC50)
pEC50: −log10 of the molar value.
EXPERIMENTAL_ENDPOINT: pEC50

-- ask What value of measured pEC50 is listed for O=C1c2ccc(Br)cc2NC2(CCN(Cc3ccccc3)CC2)N1c1ccc(OC(F)(F)F)cc1 [Compound 28] ?
-- reply > 6.00

-- ask What value of measured pEC50 is listed for O=C(Nc1ccc(OC(F)(F)F)cc1)c1ccc(Br)cc1O [Compound 125] ?
-- reply > 6.00

-- ask What value of measured pEC50 is listed for O=C(OCC1CC1)c1ccc2c(c1)NC1(CCN(Cc3ccc(F)c(F)c3)CC1)N(c1ccc(OC(F)(F)F)cc1)C2=O [Compound 58] ?
-- reply > 6.00

-- ask What value of measured pEC50 is listed for O=C1c2ccc(Br)cc2NC2(CCN(Cc3ccc(F)c(F)c3)CC2)N1c1ccc(OC(F)(F)F)c(Cl)c1 [Compound 102] ?
-- reply 5.00 to 6.00

-- ask What value of measured pEC50 is listed for COc1ccc(N2C(=O)c3ccc(OC)cc3NC23CCN(Cc2ccc(F)c(F)c2)CC3)cc1 [Compound 39] ?
-- reply > 6.00

-- ask What value of measured pEC50 is listed for O=C1c2ccc(Br)cc2NC2(CCN(Cc3ccc(F)c(F)c3)CC2)N1c1ccc(C(F)(F)F)cc1 [Compound 52] ?
-- reply > 6.00

-- ask What value of measured pEC50 is listed for COc1ccc(N2C(=O)c3ccc(C(=O)OC(C)C)cc3NC23CCN(Cc2ccc(F)c(F)c2)CC3)cc1 [Compound 3] ?
-- reply > 6.00

-- ask What value of measured pEC50 is listed for COc1ccc(N2C(=O)c3ccccc3NC23CN(Cc2ccccc2C)C3)cc1 [Compound 94] ?
-- reply 5.00 to 6.00

-- ask What value of measured pEC50 is listed for COc1ccc(N2C(=O)c3ccc(-c4cccnc4)cc3NC23CCN(Cc2ccc(F)c(F)c2)CC3)cc1 [Compound 40] ?
-- reply > 6.00

-- ask What value of measured pEC50 is listed for O=C1c2ccc(-c3ccncn3)cc2NC2(CCN(Cc3ccc(F)c(F)c3)CC2)N1c1ccc(OC(F)(F)F)cc1 [Compound 9] ?
-- reply > 6.00

-- ask What value of measured pEC50 is listed for COc1ccc(N2C(=O)c3ccc(OC)cc3NC23CCN(Cc2ccc(Cl)s2)CC3)cc1 [Compound 59] ?
-- reply > 6.00

-- ask What value of measured pEC50 is listed for CCC(c1ccc(F)c(F)c1)N1CCC2(CC1)Nc1cc(Br)ccc1C(=O)N2c1ccc(OC(F)(F)F)cc1 (stereo not drawn) [Compound 22] ?
-- reply > 6.00

-- ask What value of measured pEC50 is listed for COc1ccc(N2C(=O)c3ccc(-c4ccncc4)cc3NC23CCN(Cc2ccc(F)c(F)c2)CC3)cc1 [Compound 20] ?
-- reply > 6.00

-- ask What value of measured pEC50 is listed for COc1ccc(N2C(=O)c3ccc(-c4ccccn4)cc3NC23CCN(Cc2ccc(F)c(F)c2)CC3)cc1 [Compound 73] ?
-- reply 5.00 to 6.00

-- ask What value of measured pEC50 is listed for COc1ccc(N2C(=O)c3ccccc3NC23CCN(Cc2cc(Cl)ccc2Cl)CC3)cc1 [Compound 13] ?
-- reply > 6.00

-- ask What value of measured pEC50 is listed for COc1ccc(N2C(=O)c3ccccc3NC23CCC(Nc2ccccc2)CC3)cc1 (stereo not drawn) [Compound 44] ?
-- reply > 6.00

-- ask What value of measured pEC50 is listed for COc1ccc(N2C(=O)c3ccccc3NC23CN(Cc2ccccc2)C3)cc1 [Compound 92] ?
-- reply 5.00 to 6.00

-- ask What value of measured pEC50 is listed for COCCOc1ccc(N2C(=O)c3ccc(Br)cc3NC23CCN(Cc2ccc(F)c(F)c2)CC3)cc1 [Compound 37] ?
-- reply > 6.00

-- ask What value of measured pEC50 is listed for COc1ccc(N2C(=O)c3ccccc3NC23CN(Cc2c(F)cc(F)cc2F)C3)cc1 [Compound 119] ?
-- reply 5.00 to 6.00

-- ask What value of measured pEC50 is listed for CCc1ccc2c(c1)NC1(CCN(Cc3ccc(F)c(F)c3)CC1)N(c1ccc(OC)cc1)C2=O [Compound 63] ?
-- reply > 6.00

-- ask What value of measured pEC50 is listed for COc1ccc(N2C(=O)c3ccc(F)cc3NC23CCN(Cc2ccc(F)c(F)c2)CC3)cc1 [Compound 23] ?
-- reply > 6.00

-- ask What value of measured pEC50 is listed for COc1ccc(N2C(=O)c3ccccc3NC23CN(Cc2ccc4ccccc4c2)C3)cc1 [Compound 90] ?
-- reply 5.00 to 6.00

-- ask What value of measured pEC50 is listed for CSc1ccc(N2C(=O)c3ccc(-c4ccco4)cc3NC23CCN(Cc2ccc(F)c(F)c2)CC3)cc1 [Compound 41] ?
-- reply > 6.00

-- ask What value of measured pEC50 is listed for O=C1c2ccc(Br)cc2NC2(CCN(C(c3ccc(F)c(F)c3)C(F)(F)F)CC2)N1c1ccc(OC(F)(F)F)cc1 (stereo not drawn) [Compound 107] ?
-- reply > 6.00

-- ask What value of measured pEC50 is listed for COc1ccc(N2C(=O)c3ccc(OC)cc3NC23CCN(Cc2cccc(C#N)c2)CC3)cc1 [Compound 100] ?
-- reply 5.00 to 6.00

-- ask What value of measured pEC50 is listed for COc1ccc(N2C(=O)c3ccc(-c4nccs4)cc3NC23CCN(Cc2ccc(F)c(F)c2)CC3)cc1 [Compound 14] ?
-- reply > 6.00

-- ask What value of measured pEC50 is listed for CCC(c1ccccc1)N1CCC2(CC1)Nc1cc(Br)ccc1C(=O)N2c1ccc(OC(F)(F)F)cc1 (stereo not drawn) [Compound 48] ?
-- reply > 6.00

-- ask What value of measured pEC50 is listed for O=C1c2ccc(Br)cc2NC2(CCN(Cc3ccccn3)CC2)N1c1ccc(OC(F)(F)F)cc1 [Compound 103] ?
-- reply 5.00 to 6.00

-- ask What value of measured pEC50 is listed for COc1ccc(N2C(=O)c3ccccc3NC23CCN(Cc2ccccc2C#N)CC3)cc1 [Compound 116] ?
-- reply 5.00 to 6.00

-- ask What value of measured pEC50 is listed for COc1ccc(N2C(=O)c3ccc(-c4ccc(CN(C)C)o4)cc3NC23CCN(Cc2ccc(F)c(F)c2)CC3)cc1 [Compound 117] ?
-- reply 5.00 to 6.00
